Please respond with reported pEC50 for every item in the list.
- SYSTEM: GKRP (Glucokinase Regulatory Protein) with human His-hepatic GK (Homo sapiens, UniProt Q14397)
- Sequence (Q14397 1-625): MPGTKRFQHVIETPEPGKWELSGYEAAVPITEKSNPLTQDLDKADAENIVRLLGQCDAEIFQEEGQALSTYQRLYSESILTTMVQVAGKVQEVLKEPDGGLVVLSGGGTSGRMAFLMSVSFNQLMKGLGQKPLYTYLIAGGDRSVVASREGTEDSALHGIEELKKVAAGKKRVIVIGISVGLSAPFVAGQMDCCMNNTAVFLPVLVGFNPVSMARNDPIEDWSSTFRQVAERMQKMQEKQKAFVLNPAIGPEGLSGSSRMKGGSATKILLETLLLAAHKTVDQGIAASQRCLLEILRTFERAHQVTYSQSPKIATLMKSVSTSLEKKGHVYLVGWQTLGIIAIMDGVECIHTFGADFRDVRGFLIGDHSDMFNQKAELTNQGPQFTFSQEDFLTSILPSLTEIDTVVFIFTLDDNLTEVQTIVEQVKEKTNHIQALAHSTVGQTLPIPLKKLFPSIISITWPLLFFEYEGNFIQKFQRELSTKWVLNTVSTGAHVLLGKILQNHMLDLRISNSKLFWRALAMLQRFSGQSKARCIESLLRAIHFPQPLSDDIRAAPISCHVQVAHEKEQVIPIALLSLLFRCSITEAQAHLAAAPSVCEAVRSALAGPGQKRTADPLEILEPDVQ
- MEASUREMENT NOTES: GKRP LC MS/MS Biochemical Assay
- TEST CONDITIONS: GK-GKRP EC50 (LC MS/MS), 13C-glucose-6-phosphate formation; 1 μM GKRP (10×), 30 nM GK (5×)
- Description: GKRP LC MS/MS Biochemical Assay This assay is used to directly measure the formation of ^13C-glucose-6-phosphate from ^13C-glucose by liquid chromatography-mass spectrometry (LC MS/MS). Begin by preparing the following solutions: Compound Buffer (CB): 50 mM Tris, pH 7.5/4 mM MgCl2/6% DMSO/fresh 10 mM DTT from 1M frozen stock. Enzyme Buffer (EB): 50 mM Tris, pH 7.5/4 mM MgCl2/6% DMSO/fresh 0.1% BSA/fresh 0.01% Brij-35 (10% BSA and 1% Brij-35 stock). […]
Where a name gives a salt, the structure may show the parent alone.
Numbers only, as −log10 of the molar value.

Field: example entries. Status: answers known.
Cc1ccc(CC2CN(S(=O)(=O)c3cccs3)CCN2c2ccc(C(O)(C(F)(F)F)C(F)(F)F)cc2)cc1 (racemic) [Example 43, hydrochloride]; 5.58
C[C@H]1COCCN1C[C@H]1CN(S(=O)(=O)c2cccs2)CCN1c1ccc([C@@](C)(O)C(F)(F)F)cc1 [Example 45 Peak #2]; 7.15

Input: Data request, read-out pEC50, for O=S(=O)(c1nccs1)N1CCN(c2ccc(C(O)(C(F)(F)F)C(F)(F)F)cc2)CC1 [Example 33, trifluoroacetate]
Output: 6.07

---

- SYSTEM: GKRP (Glucokinase Regulatory Protein) with human His-hepatic GK (Homo sapiens, UniProt Q14397)
- MEASUREMENT NOTES: GKRP NADPH Coupled Assay
- Format: biochemical
- TEST CONDITIONS: GK-GKRP EC50 (NADPH-coupled), indirect measure of glucose-6-phosphate, fluorescence; 1 μM GKRP (10×), 20 nM GK (5×)
Structures can show the parent of a compound that is named as a salt.
PARAMETER MEASURED: pEC50
One number for each entry, as −log10 of the molar value.

Use these answered entries as a reference point.
Cc1ccc(CC2CN(S(=O)(=O)c3cccs3)CCN2c2ccc(C(O)(C(F)(F)F)C(F)(F)F)cc2)cc1 (racemic) [Example 43, hydrochloride]; 5.60
CC(O)(c1ccc(N2CCN(S(=O)(=O)c3cccs3)C[C@@H]2Cn2ccc3nccnc32)cc1)C(F)(F)F (mixture of isomers) [Example 171]; 6.19
CC(C)(O)C#Cc1cc(-c2ccc(C(C)(O)C(F)(F)F)cc2)ccc1S(=O)(=O)c1ccccc1 (racemic) [Example 20]; 5.74
O=S(=O)(c1cccs1)N1CCN(c2ccc(C(O)(C(F)(F)F)C(F)(F)F)cc2)C[C@H]1C1CC1 [Example 14]; 5.30
CC[C@H]1CN(S(=O)(=O)c2cccs2)CCN1c1ccc(C(O)(C(F)(F)F)C(F)(F)F)cc1 [Example 63]; 6.17
CC(O)(c1ccc(N2CCN(S(=O)(=O)c3cccs3)CC2CN2CCOCC2CO)cc1)C(F)(F)F (mixture of isomers) [Example 48]; 6.41

--- query ---
Input: pEC50 lookup needed for O=S(=O)(c1c[nH]cn1)N1CCN(c2ccc(C(O)(C(F)(F)F)C(F)(F)F)cc2)CC1 [Example 60] , thanks.
Output: 5.63
